Examples of molecules with documented EC50 follow.
- tgt: TLR8 (Homo sapiens, UniProt Q9NR97)
- Construct: human HEK-Blue cells co-expressing a TLR7 or TLR8 gene
- Sequence (Q9NR97 27-1041): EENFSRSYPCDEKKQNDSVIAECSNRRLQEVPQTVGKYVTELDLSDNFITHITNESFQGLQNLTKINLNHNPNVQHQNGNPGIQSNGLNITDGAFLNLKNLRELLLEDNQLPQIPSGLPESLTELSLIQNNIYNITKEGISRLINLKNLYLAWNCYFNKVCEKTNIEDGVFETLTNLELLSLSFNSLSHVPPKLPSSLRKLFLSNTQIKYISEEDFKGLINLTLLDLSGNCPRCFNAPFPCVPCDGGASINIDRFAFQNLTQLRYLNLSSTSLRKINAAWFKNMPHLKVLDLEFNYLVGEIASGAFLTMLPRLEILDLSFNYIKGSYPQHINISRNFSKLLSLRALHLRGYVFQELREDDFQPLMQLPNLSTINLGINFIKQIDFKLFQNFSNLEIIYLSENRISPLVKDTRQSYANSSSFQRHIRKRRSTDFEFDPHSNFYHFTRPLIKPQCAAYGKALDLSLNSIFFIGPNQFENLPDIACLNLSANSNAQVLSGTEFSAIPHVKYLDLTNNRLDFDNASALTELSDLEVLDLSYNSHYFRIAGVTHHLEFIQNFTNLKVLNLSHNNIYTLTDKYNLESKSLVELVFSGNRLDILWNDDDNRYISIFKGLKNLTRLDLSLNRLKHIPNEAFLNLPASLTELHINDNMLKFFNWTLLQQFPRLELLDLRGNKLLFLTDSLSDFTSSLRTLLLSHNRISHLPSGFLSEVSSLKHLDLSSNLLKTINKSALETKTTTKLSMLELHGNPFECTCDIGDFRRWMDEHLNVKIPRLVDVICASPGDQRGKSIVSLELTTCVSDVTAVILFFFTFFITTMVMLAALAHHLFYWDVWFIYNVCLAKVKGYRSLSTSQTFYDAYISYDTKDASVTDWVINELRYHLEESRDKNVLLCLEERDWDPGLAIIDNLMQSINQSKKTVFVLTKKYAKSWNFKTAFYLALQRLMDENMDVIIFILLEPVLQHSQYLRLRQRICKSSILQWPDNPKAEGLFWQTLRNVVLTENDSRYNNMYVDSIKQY
- procedure.summary: In vitro human TLR8 binding reporter assay (HEK-Blue, NF-kB/AP1-inducible SEAP)
- Assay type: cell-based
- assay.context: activity range class, read-out: TLR8 Agonist EC50

The cases that follow already have their EC50 on record.
[[record]]
molecule = "COC(C)Cn1cc2c(N)nc3cc(-c4cc[nH]n4)ccc3c2n1 (single isomer, unassigned) [Example 346]"
outcome_measure = "EC50"
meas_value = "> 100 µM"

[[record]]
molecule = "Nc1nc2cc(-c3ccn[nH]3)ccc2c2[nH]c(CCNC(=O)c3ccccn3)cc12"
outcome_measure = "EC50"
meas_value = "> 100 µM"

[[record]]
molecule = "Nc1nc2cc(-c3cc[nH]n3)ccc2c2c1cnn2C1CCOC1 (stereo not shown)"
outcome_measure = "EC50"
meas_value = "> 100 µM"

[[record]]
molecule = "Nc1nc2cc(-c3cc[nH]n3)ccc2c2cn(CCN3Cc4ccccc4C3=O)nc12"
outcome_measure = "EC50"
meas_value = "20 to 100 µM"

[[record]]
molecule = "Nc1nc2cc(-c3cc[nH]n3)ccc2c2cn(Cc3nnc(-c4ccccc4)o3)nc12"
outcome_measure = "EC50"
meas_value = "> 100 µM"

[[record]]
molecule = "Nc1nc2cc(-c3cc[nH]n3)ccc2c2cn(CCNCc3ccccc3)nc12"
outcome_measure = "EC50"
meas_value = "20 to 100 µM"


**Query** I would be grateful if you could share the reported EC50 for Nc1nc2cc(-c3cc[nH]n3)ccc2c2cn(CCCNC(=O)c3ccccn3)nc12 .
**Result** > 100 µM

**Query** I would be grateful if you could share the reported EC50 for CC(C)(CO)Cn1cc2c(N)nc3cc(-c4cc[nH]n4)ccc3c2n1 .
**Result** > 100 µM

**Query** I would be grateful if you could share the reported EC50 for C[C@H](CO)Cn1ncc2c(N)nc3cc(-c4cc[nH]n4)ccc3c21 .
**Result** > 100 µM

**Query** I would be grateful if you could share the reported EC50 for Nc1nc2cc(-c3cc[nH]n3)ccc2c2nn(C3CCCC3O)cc12 (single isomer, unassigned) [Example 316] .
**Result** > 100 µM
